Target: P. falciparum apicoplast DNA polymerase (Pf-apPOL) (Plasmodium falciparum, UniProt Q8ILY1)
Sequence (Q8ILY1 entry or part of it): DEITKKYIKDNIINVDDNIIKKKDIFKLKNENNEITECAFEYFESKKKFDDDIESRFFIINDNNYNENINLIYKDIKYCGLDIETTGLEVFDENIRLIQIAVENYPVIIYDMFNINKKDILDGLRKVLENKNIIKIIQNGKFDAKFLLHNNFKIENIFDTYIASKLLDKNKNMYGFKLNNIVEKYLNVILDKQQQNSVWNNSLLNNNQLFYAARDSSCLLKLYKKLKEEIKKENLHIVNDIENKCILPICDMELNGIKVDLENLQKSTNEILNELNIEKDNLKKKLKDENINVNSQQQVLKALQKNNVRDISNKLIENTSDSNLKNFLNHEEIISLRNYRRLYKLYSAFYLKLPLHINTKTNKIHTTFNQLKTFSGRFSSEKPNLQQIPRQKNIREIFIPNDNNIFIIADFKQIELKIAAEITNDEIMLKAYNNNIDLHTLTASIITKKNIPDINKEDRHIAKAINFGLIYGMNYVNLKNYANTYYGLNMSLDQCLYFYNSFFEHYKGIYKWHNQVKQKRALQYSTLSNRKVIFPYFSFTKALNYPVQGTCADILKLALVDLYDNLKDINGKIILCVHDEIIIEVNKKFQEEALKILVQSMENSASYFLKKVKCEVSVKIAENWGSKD
Experiment: Fluorescence-based high-throughput DNA polymerase assay (molecular beacon), primary screen and dose-response;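 note: test concentration in µM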
Type: biochemical
Conditions: DRC-1; 180'; concentration 2.5
Excerpt: The HT assay employs a molecular beacon, a stem-loop DNA template with a Cy3 dye and the Black Hole Quencher on the 3′ and 5′ ends of the DNA, respectively. Pf-apPOL concentration is based on a calculated absorptivity of ε280 = 56750 M^−1 cm^−1. […] To identify apPOL inhibitors we utilised our previously developed high-throughput DNA polymerase assay. […] The assay accurately recapitulates the kinetic behaviour of apPOL, as measured through more conventional low-throughput gel-based assays. […]
% inhibition apPOL 180' values, listed per item
attributeMeasured: % inhibition apPOL 180' (%)

> print(dat)
                                   compound        attributemeasured  reportedvalue
1  CSC1=C(C#N)C(=C(C#N)C#N)NC(c2ccccc2)=N1 [Molecule 2, CSc1nc([nH]c(=C(C#N)C#N)c1C#N)c1ccccc1]  % inhibition apPOL 180'          3.214
2  Cc1ccc2c(C(=O)NCCc3cccnc3)cc(NC(=O)C(C)C)cc2n1  % inhibition apPOL 180'         -4.525
3  O=C(Nc1ccc2c(c1)Cc1cc(NC(=O)c3ccco3)ccc1-2)c1ccco1  % inhibition apPOL 180'        -0.3262
4  COc1ccc(CNC(=O)Cn2nc3c(c2NC(=O)Cc2cccs2)CSC3)cc1  % inhibition apPOL 180'       -10.7492
5  O=C(CSc1nc2ccccc2s1)Nc1ncc([N+](=O)[O-])s1  % inhibition apPOL 180'         -6.305
6     Oc1cccc2ccc(/C=C/c3ccc4c(c3)OCO4)nc12  % inhibition apPOL 180'       -11.2426
7  Cc1ccc(CCNC(=O)c2cnn3c(O)c(Cc4ccccc4F)c(C)nc23)cc1  % inhibition apPOL 180'       -10.2215
8  O=C(O)c1cccc(N2N=C(C(F)(F)F)/C(=C/c3ccc(-c4ccccc4[N+](=O)[O-])o3)C2=O)c1  % inhibition apPOL 180'        13.4923
